Please provide measured inhibition for the entries that follow.
- test: 384-well plate pilot, post-Golgi transport modulator project, inhibition of yeast transport mutant growth (AID 636)
- applied_conditions: absorbance 615 nm, about 18 h, active compounds read high
Provide the reading as a plain figure in %.

Query: Which inhibition value belongs to Cc1cccc(CCNC(=O)C2CCCN(S(=O)(=O)c3cnc[nH]3)C2)c1 (centres undefined) ?
Reply: -4.93

Query: Field entry: c1ccc(-c2nn3c(Cn4nnc5ccccc54)nnc3s2)nc1
Reply: -2.89

Query: Field entry: Cc1ccc(-c2cc(C(=O)O)n[nH]2)o1
Reply: -3.01

Query: Field entry: CCC(C)NC(=O)c1cc(-c2ccc(OC)cc2)on1 (centres undefined)
Reply: -8.24

Query: Field entry: CCOC(=O)CNC(=O)CSc1nc(N)cc(N)n1
Reply: -4.27

Query: Field entry: CCOc1nc2ccccc2nc1NS(=O)(=O)c1ccccc1
Reply: -2.24

Query: Field entry: CCOC(=O)c1[nH]c2ccccc2c1NC(=O)C(CC)CC
Reply: -4.27

Query: Field entry: CC(=O)c1c(C)[nH]c(C(=O)Nc2ccc3c(c2)OCCO3)c1C
Reply: -0.26

Query: Field entry: Cc1cc(C)n(-c2nnc(C)n2/N=C/c2ccco2)n1
Reply: -6.27

Query: Field entry: COC(=O)c1c(NC(=O)CSc2nnc(-c3cccnc3)n2Cc2ccco2)sc(C)c1C
Reply: -5.14

Query: Field entry: O=S(=O)(c1ccc2c(c1)nc1n2CCC1)N1CCOCC1
Reply: -0.26

Query: Field entry: COc1ccc(C(CNC(=O)c2ccc(OCC3CCCO3)cc2)N2CCOCC2)cc1 (centres undefined)
Reply: -1.33

Query: Field entry: CCOC(=O)c1ccccc1NC(=O)COC(=O)C1=COCCO1
Reply: -5.81

Query: Field entry: CN(CCc1ccccn1)C(=O)CCNC(=O)Cn1cnc2ccccc2c1=O
Reply: -2.86

Query: Field entry: CCC(=O)c1ccc(OCCN2CCOCC2)cc1
Reply: -5

Query: Field entry: Cc1nnc(SCc2nc3ccccc3s2)n1-c1ccccc1
Reply: -6

Query: Field entry: FC(F)Sc1nnc(-c2cccs2)n1-c1ccccc1
Reply: -7.33

Query: Field entry: COc1ccc(C2CC(=O)C3=C(C2)Nc2ccccc2N(C(=O)C2CC2)C3c2cccnc2)cc1OC (centres undefined)
Reply: -0.79

Query: Field entry: CCN(CC)S(=O)(=O)c1ccc(Br)c(OC)c1
Reply: -6.89

Query: Field entry: COc1ccc(CN2C(=O)c3cccnc3C2Nc2cc(Cl)ccc2OC)cc1 (centres undefined)
Reply: 2.67

Query: Field entry: CCN(CC)S(=O)(=O)c1ccc2c(c1)c(=O)c(C(=O)NCCOC)cn2C
Reply: -5.95

Query: Field entry: CCOc1ccc(C(=O)N2CCN(c3ccccc3)CC2)cc1OCC
Reply: 2.47

Query: Field entry: O=C(COC(=O)C1CC(=O)N(c2ccccc2)C1)c1ccccc1 (centres undefined)
Reply: 4.1

Query: Field entry: O=C1CCc2cc(S(=O)(=O)N3CCC(C(=O)Nc4nccs4)CC3)ccc2N1
Reply: -1.67

====

Please provide measured viability increase for the entries that follow.
- test: viability gain of MRP-1-high H69AR cells under doxorubicin, pilot screen, MRP-1 activator project, CellTiter-Glo, duplicate (AID 807);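 note: compound pretreatment 18-22 h then 72 h combined with doxorubicin; 0% = doxorubicin alone and 100% = vehicle without doxorubicin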
- applied_conditions: H69AR viability with doxorubicin, CellTiter-Glo luminescence; at 10 µM; active compounds read high
Provide the reading as a plain figure in %.

Query: Which viability increase value belongs to CCOc1ccc(Oc2nc(NCC(C)C)nc(OC)n2)nn1 ?
Reply: 0.16

Query: Field entry: Cc1ccc(Nc2nc(C3CC3)cs2)cc1
Reply: -1.97

Query: Field entry: Cc1cccc(Cn2c(N(C)Cc3ccccc3)nc3c2c(=O)[nH]c(=O)n3C)c1
Reply: -2.61

Query: Field entry: CC(=O)c1ccc(-n2nncc2C)cc1
Reply: -3.63

Query: Field entry: COC(=O)CSc1ccc2nnc(-c3ccc(OC)c(OC)c3)n2n1
Reply: -0.56

Query: Field entry: Cc1nn(C)c(C)c1N=Cc1c(O)ccc2ccccc12
Reply: -1.72

Query: Field entry: Cc1cc(=O)oc2cc3c(cc12)OCCN3
Reply: -1.47

Query: Field entry: O=C(Nc1cccc2c1CCCC2)c1ccc(Br)o1
Reply: -1.15

Query: Field entry: CCC(C)NC(=O)C1CN(S(=O)(=O)c2ccccc2)CCN1S(=O)(=O)c1ccccc1 (stereo not drawn)
Reply: -2.53

Query: Field entry: Cc1c(NC(=O)NCCN2C(=O)C3C4C=CC(C4)C3C2=O)c(=O)n(-c2ccccc2)n1C (stereo not drawn)
Reply: 0.15

Query: Field entry: COCCCNC(=O)c1ccc(Cn2c(=O)[nH]c3ccccc3c2=O)cc1
Reply: -5.59

Query: Field entry: COc1ccc(OC)c(NC(=O)NC2(C(F)(F)F)Oc3ccccc3O2)c1
Reply: -6.83

Query: Field entry: C/C(=C1/SC(=S)N(CCC(=O)O)C1=O)c1ccc(O)cc1
Reply: 1.4

Query: Field entry: COc1ccc(OC)c(NC(=O)c2cnc3n(c2=O)CCS3)c1
Reply: -1.5

Query: Field entry: Cc1cccc(NC(=O)C2CCN(S(=O)(=O)c3cccc4cccnc34)CC2)n1
Reply: -3.03

Query: Field entry: COc1ccc(C)cc1NC(=O)c1cc2c(CO)cnc(C)c2oc1=N
Reply: -0.06

Query: Field entry: COc1ccc(Nc2ccc3c(c2)=NC2(CCCCC2)[N+]=3[O-])cc1
Reply: -8.28

Query: Field entry: O=C(Oc1ccc2c(=O)c(Cl)coc2c1)c1ccncc1
Reply: -4.3

Query: Field entry: CCCCCn1c(CNC(=O)CC)nc2ccccc21
Reply: 0.02

Query: Field entry: CCOc1ccc2nc(N3CCC(C(=O)Nc4nnc(CC)s4)CC3)sc2c1
Reply: -0.45

Query: Field entry: c1cc(-c2nnc3n2CCC3)[nH]n1
Reply: -2.22

Query: Field entry: Cc1c(C(=O)NCc2ccc3c(c2)OCO3)sc2nc(-c3ccc(F)cc3)cn12
Reply: 0.84

Query: Field entry: CCOc1ccc(OCC)c(S(=O)(=O)NCc2ccc3c(c2)OCO3)c1
Reply: -2.97
